- System: Tobacco mosaic virus
- protocol.details: Inhibition of Tobacco mosaic virus (TMV) infection in Nicotiana glutinosa assessed as infection inhibition rate at 25 ug/ml after 3 to 4 days by half-leaf method
- Format: functional
Collected inhibition at 25 µg/mL values appear next to each entry.
attribute.measured: inhibition at 25 µg/mL (%)

{"compound": "CNCC(=O)N[C@@H](CO)C(=O)N[C@H]1[C@H](O)[C@@H](O)[C@H](n2ccc(N)nc2=O)O[C@@H]1C(N)=O", "assay.result": 38.3}
{"compound": "CC(=O)O[C@H]1C[C@H]2[C@](C)(C3=CC[C@@H](c4ccoc4)[C@@]31C)[C@H](OC(=O)C=C(C)C)C[C@H]1C(C)(C)OC(=O)C[C@H](OC(C)=O)[C@@]12C", "assay.result": 42.9}
{"compound": "C/C=C(\\C)C(=O)O[C@H]1C[C@@H](OC(C)=O)[C@@]2(C)CO[C@H]3[C@@H](O)[C@@]4(C)C5=C[C@@H](O)[C@@H](c6ccoc6)[C@]5(C)[C@@H](OC)C[C@@H]4[C@]1(C)[C@@H]32", "assay.result": 44.6}
{"compound": "C=C1[C@@H]([C@@]2(C)C=CC(=O)OC(C)(C)[C@@H]2CC(=O)OC)[C@@H](OC(C)=O)[C@H](OC(C)=O)[C@@]2(C)[C@H](C3=CC(=O)OC3)C[C@H]3O[C@]132", "assay.result": 51.4}
{"compound": "CCC(C)C(O)C(=O)O[C@H]1C[C@H]2[C@](C)(C3=CC[C@@H](c4ccoc4)[C@@]31C)[C@H](OC(C)=O)C[C@H]1C(C)(C)OC(=O)C[C@H](OC(C)=O)[C@@]12C (some centres not stated)", "assay.result": 45.7}
{"compound": "C=C1[C@@H]([C@@]2(C)C=CC(=O)OC(C)(C)[C@@H]2CC(=O)OC)[C@@H](OC(C)=O)[C@H](OC(C)=O)[C@@]2(C)[C@@H](c3ccoc3)C[C@H]3O[C@]132", "assay.result": 49.8}
{"compound": "CC(=O)O[C@H]1C[C@H]2[C@](C)(C3=CC[C@@H](c4ccoc4)[C@@]31C)[C@H](OC(C)=O)C[C@H]1C(C)(C)OC(=O)C[C@H](OC(C)=O)[C@@]12C", "assay.result": 43.9}
